assayed-target: Plasmodium falciparum protein kinase 6 (PK6, PF3D7_1337100) (UniProt Q8IDW1)
protocol: PfPK6 kinase inhibitors, biochemical, TCAMS library (AID 1159586)
protocol-conditions: recombinant PfPK6, Kinase-Glo ATP depletion luminescence
Entries with a potency or affinity are not part of this list. The source made the active and inactive calls. How the calls were made is not given here.
measured-attribute: outcome

CCOC(=O)c1ccc(NC(=O)N(Cc2ccc(-c3cccc(CN4CCNCC4)c3)cc2)C2CCN(Cc3ccccc3)CC2)cc1 : inactive
Cc1nnc2c(NC(=O)NC3CCCC3)cc3cc(-c4ccc(CN(C)C)cc4)ccc3n12 : inactive
COc1ccc2nccc([C@@H](O)CN3CCC(NCc4cn5cc(F)ccc5n4)CC3)c2c1 : inactive
CC(Cc1ccc(CN(CC(N)=O)Cc2ccc(CC(C)NCCc3cccc(Cl)c3)cc2)cc1)NCCc1cccc(Cl)c1 (centres undefined) : inactive

----------
protocol: inhibition of 3D7 malaria parasite growth – strain 3D7 (AID 2306);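 further: 0% = DMSO wells and 100% = chloroquine plus artemisinin control wells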
protocol-conditions: P. falciparum 3D7 erythrocytic growth, LDH absorbance, 72 h; at 2 µM; stronger effect = higher value
measured-attribute: growth inhibition (%)
Provide only the numeric value, understood in %.

Consider the reported growth inhibition for these molecules:
CCOc1ccccc1NC(=O)Nc1ccc2c(c1)CCN(C1CCC1)CC2 : 88
CC1(C)CCC(=Cc2ccc(Cl)cc2)CC1(O)Cn1ccnc1 (centres undefined) : 99
COc1ccc(-c2cc(NCc3ccc(-n4ccnc4)cc3)nc(Nc3ccccc3)n2)cc1 : 101
COc1cc2c(c(OC)c1[N+](=O)[O-])C=CC1(O2)N(C)c2ccc([N+](=O)[O-])cc2C1(C)C (centres undefined) : 92
O=c1cc(-c2cccc(C(F)(F)F)c2)nc(Nc2ccc(Cl)c(Cl)c2)[nH]1 : 97
O=C(/C=C/c1ccc(Cl)c(Cl)c1)N1CCCC(CCCN2CCC(c3c[nH]c4ccccc34)CC2)C1 (centres undefined) : 89

Prompt line: Value lookup for growth inhibition; key = O=C(Cc1ccccc1)NC(c1ccccc1)c1ccc2cccnc2c1O (centres undefined)
Response line: 89

Prompt line: Quick one: growth inhibition of O=C(NC1CCN(CCN2CCC(c3cn(CCO)c4ccccc34)CC2)CC1)c1ccc(-c2ccc(C(F)(F)F)cc2)cc1 ?
Response line: 98

Prompt line: Would you mind telling me what growth inhibition value was observed for O=C(CC1SC(N2N=C(c3cccs3)CC2c2ccccc2)=NC1=O)Nc1ccc(Cl)cc1 (centres undefined) ?
Response line: 83

----------
Entries and their measured inhibition follow.
assayed-target: L-lactate dehydrogenase (Plasmodium falciparum (isolate CDC / Honduras))
protocol: PfLDH activity inhibition – cell lysate, 3D7 strain, counter-screen for P. falciparum growth inhibition project (AID 2304);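 further: 0% = vehicle and 100% = reference inhibitor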
protocol-conditions: P. falciparum 3D7 crude extract, LDH APAD/NBT absorbance; at 2 µM; stronger effect = higher value
# number only, unit % dropped from output

Use these answered entries as a reference point.
COc1ccc(Nc2nccc(N3CCC(NS(=O)(=O)c4ccc(NC(C)=O)cc4)C3)n2)cc1 (stereo not given) : -2
CCOC(=O)c1[nH]c(-c2ccccc2)nc1NC(=S)NC1CCCCC1 : 1
Cc1cccc(NC(=O)c2cnc(N3CCN(c4ccncc4)CC3)c(Cl)c2)c1 : -2

Prompt line: Would you kindly share the measured inhibition for COc1ccc(NC(=O)Nc2cccc(-c3ccc(-c4nc5ccc(C(F)(F)F)cc5[nH]4)cc3)c2)cc1 ?
Response line: 6

Prompt line: What inhibition value was documented for this molecule, COc1cc(Cc2cnc(N)nc2N)cc(OC)c1OCCNC(=O)[C@@H](N)CCC(=O)O ?
Response line: -6

Prompt line: // lookup inhibition for Cc1cccc2[nH]c(-c3cccc(-c4ccc(NC(=O)C(C)C(=O)NC(C)C)cc4)c3)nc12 (stereo not given)
Response line: -3

Prompt line: inhibition lookup needed for Cc1cc(NC2CCN(CC3CCCCC3)C2)nc(Nc2ccc(Cl)cc2)n1 (stereo not given) , thanks.
Response line: -2

Prompt line: Request the reported inhibition associated with O=C(N[C@@H](CC1CCCCC1)C(=O)NC1CCCc2ccccc21)c1ccc(O)c(-c2cccc(C(F)(F)F)c2)c1 (stereo not given in full)
Response line: 5

----------
protocol: human hepatoma cell viability loss – ATP luminescence, cytotoxicity control for P. falciparum antimalarial project, primary screen (AID 2303);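 further: 0% = DMSO wells and 100% = digitonin-killed cells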
protocol-conditions: HepG2 viability, 24-48 h, at 10 µM
Activity calls are given as the source filed them.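 How the source made its calls: active means inhibition above 50%; inactive means the rest.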
Please answer using one outcome listed in yes (1) for active, no (0) for inactive

Solved entries:
CCNc1cc(C(=O)N[C@@H](Cc2ccccc2)[C@H](O)CNCc2cccc(-c3cncnc3)c2)cc(N2CCCC2=O)c1 : no (0)
COc1ccc2ncc(F)c(CCN3CCC(NCc4cc(Br)c5c(c4)OCCO5)CC3)c2n1 : no (0)
c1ccc(Oc2ccc(Nc3ccnc4cc(-c5ccc(CN6CCNCC6)o5)ccc34)cc2)nc1 : no (0)
CCCCCCCc1[nH]c2ccccc2c(=O)c1C : no (0)
COc1ccc(CNC2CCN(C)CC2)cc1-c1ccc(S(=O)(=O)NCc2ccccc2)s1 : yes (1)
O=C(CCc1cnc[nH]1)Nc1ccc(-c2ccc(-c3nc4ccc(F)cc4[nH]3)cc2)cc1 : no (0)
CC(C)c1ccc(NC(=O)c2ccc(C(=O)NC3CCN(Cc4ccsc4)C3)cc2)cc1 (centres undefined) : no (0)
CCOc1cc(CC)ccc1C1CCN(CCN2CCC(CNC(=O)c3ccc(-c4ccc(C#N)cc4)cc3)CC2)CC1 : yes (1)

Then this compound:
Prompt line: Hello, I am checking results. What call was entered for O=C(Nc1ccc(OC2CCN(Cc3ccc(F)cc3)CC2)c(Cl)c1)c1ccco1 ?
Response line: no (0)

----------
protocol: antimalarial activity against Dd2 strain (AID 2302);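 further: 0% = DMSO untreated growth and 100% = chloroquine plus artemisinin killed control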
protocol-conditions: P. falciparum Dd2 in RBCs, LDH growth readout, 72 h; at 2 µM; stronger effect = higher value
The source made the active and inactive calls.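 How the source made its calls: active means growth inhibition above 50% at the single 2 µM test dose, taken to imply half-maximal potency below 2 µM; inactive means the rest.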
measured-attribute: growth inhibition

Worked set:
Cc1cccc(CNc2nc(C)cc(N[C@@H](Cc3ccccc3)C(=O)NCCc3ccccc3)n2)c1 : 85% (active)
COc1ccccc1CNC(=O)c1cc(OC)c(OC)cc1NC(=O)c1cccs1 : 71% (active)
NC(=NCCc1ccc(Cl)cc1)c1ccc(Cl)c(Cl)c1 : 42% (inactive)
CO/C(=C\C=C\c1cc2cc(Cl)c(Cl)cc2[nH]1)C(=O)NCCCN1CCN(c2ccc(OC)cc2)CC1 : 44% (inactive)
C(=NNc1ccnc2ccccc12)c1ccncc1 : 27% (inactive)

Prompt line: Recorded growth inhibition for CCCC(C)Nc1nc(C)cc(NCCC(=O)Nc2ccccc2)n1 (centres undefined) , please?
Response line: 11% (inactive)

Prompt line: Given the entry O=C(Nc1cccc(CN2CCCN(CC3CC3)CC2)c1)c1ccc(Cl)c(Cl)c1 , report its measured growth inhibition.
Response line: 5% (inactive)

Prompt line: What value of growth inhibition has been recorded for this entry: Cn1nccc1C(=O)NCCNCc1cccc(-c2ccc(-c3nc4ccccc4[nH]3)s2)c1
Response line: 94% (active)

Prompt line: GET /values?readout=growth inhibition&item= CN1CCN(CCCN(Cc2csc(-c3ccc(CNCc4ccccc4)cc3)n2)S(=O)(=O)c2cccc3cccnc23)CC1
Response line: 32% (inactive)

Prompt line: Given Cc1cccc(C(=O)N2CCN(Cc3cccc(NC(=O)c4ccco4)c3)CC2)c1 , state its recorded growth inhibition.
Response line: 79% (active)

Prompt line: Give the measured growth inhibition of CCCCCCc1cc(Oc2c(I)cc(C[C@H](N)C(=O)O)cc2I)ccc1O .
Response line: -5% (inactive)

----------
assayed-target: Calcium-dependent protein kinase 4 (Plasmodium falciparum (isolate 3D7))
protocol: PfCDPK4 kinase inhibitors, biochemical, TCAMS library (AID 1159588)
protocol-conditions: recombinant PfCDPK4, Kinase-Glo ATP depletion luminescence
Potency and affinity values are given separately. The source made the active and inactive calls. No cut-off is given here; in the data, nearly all actives have IC50 up to about 0.91 µM.
measured-attribute: outcome

NC(=O)C1CCN(Cc2cccc(-c3cccc(-c4nc5ccc(F)cc5[nH]4)c3)c2)CC1 : inactive
Cc1cc(N[C@@H](CC(C)C)C(=O)NCCOc2ccccc2)nc(NCC2CCCCC2)n1 : inactive
Cc1ccc2c(OCCN3CCC(Cc4ccc5c(c4)NC(=O)CO5)CC3)cc(F)cc2n1 : inactive
CCS(=O)(=O)Nc1ccc2[nH]cc(C3CCN(CCC4CCN(C(=O)/C=C/c5ccc(Cl)c(Cl)c5)CC4)CC3)c2c1 : inactive
CC(C)COc1ccc(Cl)cc1Cc1ccc(-c2nc3c(F)cccc3[nH]2)o1 : inactive

Prompt line: Could you share what outcome was measured for NC(=O)c1ccc(NCC(=O)Nc2cccc(-c3cccc(-c4nc5ccccc5[nH]4)c3)c2)cc1 , tested on Calcium-dependent protein kinase 4 (Plasmodium falciparum (isolate 3D7))?
Response line: inactive

Prompt line: What measured outcome is associated with COc1ccc2nccc(N3CCC(SCCNCc4ccc5c(n4)NC(=O)CO5)C3)c2n1 (centres undefined) on Calcium-dependent protein kinase 4 (Plasmodium falciparum (isolate 3D7))?
Response line: inactive

Prompt line: Query for Calcium-dependent protein kinase 4 (Plasmodium falciparum (isolate 3D7)): what outcome does the record show for CN(C)c1ccc(C=C2SC(=O)NC2=Nc2ccccc2)cc1 ?
Response line: inactive

Prompt line: # get_value(readout= outcome, system= Calcium-dependent protein kinase 4 (Plasmodium falciparum (isolate 3D7))) for Cc1nc(-c2ccc3c(c2)CCN(CCC2CCC(NC(=O)c4cc5cccc(Cl)c5[nH]4)CC2)CC3)no1 (centres undefined)
Response line: inactive

Prompt line: Look up outcome with Calcium-dependent protein kinase 4 (Plasmodium falciparum (isolate 3D7)) for this compound: CN1CCN(CCCN(Cc2cccc(-c3cccc(CNC4CCCC4)c3)c2)C(=O)/C=C/c2ccccc2)CC1
Response line: inactive
